System: UACC-62 melanoma
TEST DESCRIPTION: NCI tumour cell line growth inhibition, 48 h
EXPERIMENTAL READOUT: TGI

Worked cases, TGI given:
COMPOUND: CC(C)NC(=O)OCc1c(COC(=O)NC(C)C)c(-c2cc[n+](COC(=O)C3CCCCC3)cc2)n2c1CCC2
TARGET ENTITY: UACC-62 melanoma
OBSERVED MEASUREMENT: > 100 µM

COMPOUND: CC(=O)NC1C(OCc2ccccc2)OC(CO)C(O)C1OCC(=O)N[C@@H](C)C(=O)N[C@H](CCC(=O)NCCCNc1ccc([N+](=O)[O-])c2[nH]c3ccccc3c(=O)c12)C(N)=O (stereo partly drawn)
TARGET ENTITY: UACC-62 melanoma
OBSERVED MEASUREMENT: > 100 µM

Consider the additional compound presented here.
Data request: Give TGI for this entry on UACC-62 melanoma: CC(NC(=O)C(Cc1ccc(OC(=O)c2ccccc2)cc1)NC(=O)OC(C)(C)C)C(=O)NCC(=O)NC(Cc1ccccc1)C(=O)NN (stereo not drawn)
Data returned: > 100 µM

====

Reported log10(TGI) by item:
Tested on: MDA-MB-435
TEST DESCRIPTION: NCI tumour cell line growth inhibition, 48 h
Where a SMILES comes first, the peptide text is derived from it. The star is where a group is joined. Trt = c1ccc(C(c2ccccc2)(c2ccccc2)*)cc1; Cbz = O=C(OCc1ccccc1)*
Record value = log10 of TGI given in µM.

Worked cases, log10(TGI) given:
COMPOUND: COC(=O)C(CSC(c1ccccc1)(c1ccccc1)c1ccccc1)NC(=O)C(CC(N)=O)NC(=O)OCc1ccccc1 (stereo not drawn) (Cbz-Asn-Cys(Trt)-OMe; configuration not given here)
log10(TGI): 0.72
//
COMPOUND: CN(C)CCCNC(=O)c1cn2c(ccc3sc4ccccc4c(=O)c32)n1
log10(TGI): 1.48
//
COMPOUND: CN(C)CCNC(=O)c1c(O)ccc2c1c1c(n2CCc2ccccc2)C(=O)c2ccccc2C1=O
log10(TGI): 0.71
//
COMPOUND: O=C(NCCCCCN1CCC2(CCCCC2)CC1)C(C1CCCCC1)C1CCCCC1
log10(TGI): 0.57
//
COMPOUND: Cc1ccc(/C=C2/N=C(N/N=C\c3ccccc3)NC2=O)cc1
log10(TGI): 1.84
//
COMPOUND: COC(=O)c1ccc(NCC2=C(Br)C(=O)C=CC2=O)cc1Cl
log10(TGI): 1.58
//
COMPOUND: CCCCCCCCCCCCCCCC1(OC)C[N+](C)(C)CCO1 (stereo unspecified)
log10(TGI): 0.56
//
COMPOUND: CCCCCCCCCCSC(=N)N
log10(TGI): 0.60

Data request: Provide measured log10(TGI) value, entry: CC(=O)c1sc2[n+](c1C)C(=O)/C(=C\c1ccccc1Cl)S2
Data returned: 1.46

Data request: Provide measured log10(TGI) value, entry: C=C(C)[C@@H]1CC[C@]2(CO)CC[C@]3(C)[C@H](CC[C@@H]4[C@@]5(C)CC[C@H](NCO)C(C)(C)[C@@H]5CC[C@]43C)[C@@H]12
Data returned: 0.25

====

Tested on: MDA-MB-231 breast
TEST DESCRIPTION: NCI tumour cell line growth inhibition, 48 h
Reported TGI by item:

Worked cases, TGI given:
COMPOUND: Cc1cc(=O)oc2c(CNC(CC(C)C)C(=O)O)c(O)ccc12 (centres undefined)
OBSERVED MEASUREMENT: > 100 µM
//
COMPOUND: CC(NC(=O)C(Cc1ccc(OC(=O)c2ccccc2)cc1)NC(=O)OC(C)(C)C)C(=O)NCC(=O)NC(Cc1ccccc1)C(=O)NN (centres undefined)
OBSERVED MEASUREMENT: > 100 µM
//
COMPOUND: COc1ccc(-c2nc(C(=O)c3ccccc3)n(CC(=O)c3ccc(Cl)cc3)c2-c2ccc(OC)cc2)cc1
OBSERVED MEASUREMENT: > 100 µM

Data request: Provide measured TGI value, entry: NN/C(=N\S(=O)(=O)c1ccc(S(=O)(=O)c2ccccc2)s1)Nc1ccc(Cl)cc1
Data returned: > 100 µM
